Listed compounds paired with reported pest or weed control at 100 ppm
Tested on: Blumeria graminis f. sp. hordei; Synonym: Erysiphe graminis f. sp. hordei
Experiment: Barley powdery mildew (ERYSGH) disease control
Assay type: in vivo
Conditions: 24 h, 1 Day Protectant, high volume, read-out: Disease Control ERYSGH 1 DP

Solved entries (count: 4):
smiles | pest or weed control at 100 ppm
CCCO[C@H]1CCC[C@H](NC(=O)c2nccc(OC)c2OCOC(C)=O)C(=O)O[C@@H](C)[C@@H]1OC1CCCC1 | 80 to 100%
COc1ccnc(C(=O)N[C@H]2CCC[C@H](OCCCC(F)(F)F)[C@@H](OC3CCCC3)[C@H](C)OC2=O)c1OCOC(C)=O | 0 to 80%
COCCC(=O)Oc1c(OC)ccnc1C(=O)N[C@H]1CCC[C@H](Oc2ccccc2)[C@@H](OCCCc2ccccc2)[C@H](C)OC1=O | 0 to 80%
COc1ccnc(C(=O)N[C@H]2CCC[C@H](OCCCC(F)(F)F)[C@@H](OC3CCCC3)[C@H](C)OC2=O)c1OCOC(=O)C(C)C | 0 to 80%

Data request: Please report the measured pest or weed control at 100 ppm for `COc1ccnc(C(=O)N[C@H]2CCC[C@H](Oc3ccccc3)[C@@H](OC(=O)C3CC3)[C@H](C)OC2=O)c1OCOC(=O)C(C)C` tested on Blumeria graminis f. sp. hordei; Synonym: Erysiphe graminis f. sp. hordei.
Data returned: 0 to 80%

Data request: Please report the measured pest or weed control at 100 ppm for `COc1ccnc(C(=O)N[C@H]2CCC[C@H](Oc3ccccc3)[C@@H](Oc3ccccc3)[C@H](C)OC2=O)c1OCOC(C)=O` tested on Blumeria graminis f. sp. hordei; Synonym: Erysiphe graminis f. sp. hordei.
Data returned: 0 to 80%

Data request: Please report the measured pest or weed control at 100 ppm for `COc1ccnc(C(=O)N[C@H]2CCC[C@H](OCC(C)C)[C@@H](OC3CCCC3)[C@H](C)OC2=O)c1OCOC(C)=O` tested on Blumeria graminis f. sp. hordei; Synonym: Erysiphe graminis f. sp. hordei.
Data returned: 80 to 100%
